experiment: MTT cell viability assay, Hep G2 cells (serum-free DMEM); details: human, Hep G2 cells, Cell viability, DOX 0.5 μM, 72 hr
assay-readout: viability at 72 hr, 0.5 μM (%)

>>> df
                                   molecule               assay_readout  unit_descriptor  reported_measurement
0  COc1cccc2c1C(=O)c1c(O)c3c(c(O)c1C2=O)C[C@@](O)(C(=O)CO)C[C@@H]3O[C@H]1C[C@H](N)[C@H](O)[C@H](C)O1 [DOX, doxorubicin]  viability at 72 hr, 0.5 μM                %                  46.7
